Source listed as the supplement of paper PMC3334620.

Collected PBM E-score values appear next to each entry.
# Test target: Ybr033w (UniProt P38073)
# Sequence: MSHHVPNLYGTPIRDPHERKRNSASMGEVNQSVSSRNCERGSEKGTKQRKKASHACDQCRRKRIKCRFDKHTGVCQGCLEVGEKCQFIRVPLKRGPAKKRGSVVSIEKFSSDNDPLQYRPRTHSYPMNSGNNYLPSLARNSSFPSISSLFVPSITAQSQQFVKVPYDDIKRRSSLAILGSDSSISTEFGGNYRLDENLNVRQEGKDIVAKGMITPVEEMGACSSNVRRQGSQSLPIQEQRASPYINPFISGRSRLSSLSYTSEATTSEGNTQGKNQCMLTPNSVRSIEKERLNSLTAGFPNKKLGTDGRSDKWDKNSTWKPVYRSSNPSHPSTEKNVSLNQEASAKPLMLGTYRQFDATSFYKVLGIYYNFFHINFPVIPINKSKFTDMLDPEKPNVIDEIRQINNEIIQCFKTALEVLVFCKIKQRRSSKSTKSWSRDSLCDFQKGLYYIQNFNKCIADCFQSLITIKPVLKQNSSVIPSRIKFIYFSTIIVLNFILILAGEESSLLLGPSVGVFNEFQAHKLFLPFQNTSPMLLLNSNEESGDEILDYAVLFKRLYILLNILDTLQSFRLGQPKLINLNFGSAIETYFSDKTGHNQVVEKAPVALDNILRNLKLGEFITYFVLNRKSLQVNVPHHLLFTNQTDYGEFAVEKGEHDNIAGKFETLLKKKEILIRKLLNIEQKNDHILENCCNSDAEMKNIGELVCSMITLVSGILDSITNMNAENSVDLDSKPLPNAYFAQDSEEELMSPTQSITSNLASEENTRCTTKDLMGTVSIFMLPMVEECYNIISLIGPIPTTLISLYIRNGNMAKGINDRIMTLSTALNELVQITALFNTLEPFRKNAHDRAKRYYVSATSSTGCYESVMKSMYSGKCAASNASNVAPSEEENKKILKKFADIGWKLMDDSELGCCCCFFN
# Assay remarks: PBM E-score (8-mer binding enrichment) (E-score (-0.5 to 0.5)); higher = stronger / more preferred TF binding
# Stated conditions: protein concentration: 200 nM; construct: GST-full length
Whole data set: some 33,000 sequences, median “E-score (-0.5 to 0.5)” near -0.012, cut for the highest 2% near 0.29. This excerpt belongs to a sample that is enriched for the highest values.
Answer as a number with no unit attached.

| Sequence data | Reported result |
| --- | --- |
| ACTAACGG | -0.0153 |
| CCGCTTGA | -0.162 |
| AAAATGGG | -0.032 |
| CTCCGGAA | 0.22 |
| ATTCCGAC | 0.157 |
| ATCCGGAC | -0.0654 |
| ATCCATGA | -0.0662 |
| AAAATGAC | 0.15 |

Which PBM E-score value is on record for ATTCCGGG ?
0.188

Moving on to the next sequence: CTTCCGAA
0.208

How about CACCTTAC ?
-0.00385

###

Catalogue of sequences with associated PBM E-score
# Test target: Ybr033w (UniProt P38073)
# Sequence: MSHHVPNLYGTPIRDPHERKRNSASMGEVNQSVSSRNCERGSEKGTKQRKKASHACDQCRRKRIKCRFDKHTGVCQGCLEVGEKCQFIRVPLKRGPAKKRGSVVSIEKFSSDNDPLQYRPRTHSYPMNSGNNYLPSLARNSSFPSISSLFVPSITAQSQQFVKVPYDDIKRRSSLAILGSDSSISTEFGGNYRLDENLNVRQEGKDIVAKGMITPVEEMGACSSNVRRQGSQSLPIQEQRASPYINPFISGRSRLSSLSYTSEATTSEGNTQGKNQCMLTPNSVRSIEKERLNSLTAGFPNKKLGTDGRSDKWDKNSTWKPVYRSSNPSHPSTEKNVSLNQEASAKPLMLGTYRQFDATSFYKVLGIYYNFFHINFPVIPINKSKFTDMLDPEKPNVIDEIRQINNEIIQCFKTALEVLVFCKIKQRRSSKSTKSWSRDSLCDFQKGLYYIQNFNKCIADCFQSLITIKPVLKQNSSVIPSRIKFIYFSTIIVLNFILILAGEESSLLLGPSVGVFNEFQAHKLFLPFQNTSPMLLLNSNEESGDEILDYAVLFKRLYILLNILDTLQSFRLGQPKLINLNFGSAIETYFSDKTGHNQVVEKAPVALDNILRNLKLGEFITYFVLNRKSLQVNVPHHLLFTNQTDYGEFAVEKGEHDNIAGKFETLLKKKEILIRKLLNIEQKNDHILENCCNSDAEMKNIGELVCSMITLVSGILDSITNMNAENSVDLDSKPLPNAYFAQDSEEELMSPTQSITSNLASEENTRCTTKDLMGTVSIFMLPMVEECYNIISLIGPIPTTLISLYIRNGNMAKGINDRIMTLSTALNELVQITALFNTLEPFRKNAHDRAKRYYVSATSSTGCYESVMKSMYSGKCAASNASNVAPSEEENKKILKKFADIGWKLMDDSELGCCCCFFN
# Assay remarks: PBM E-score (8-mer binding enrichment) (E-score (-0.5 to 0.5)); higher = stronger / more preferred TF binding
# Stated conditions: protein concentration: 200 nM; construct: GST-full length
The full ranking holds about 33,000 sequences; the median of “E-score (-0.5 to 0.5)” is about -0.012, and the highest 2% start at about 0.29. The full list was thinned out, with the highest values kept by preference.
Reply with the value as a number alone.

| Sequence data | PBM E-score |
| --- | --- |
| ATATTCCC | 0.329 |
| GATATATA | 0.289 |
| ATATTCAA | 0.3 |
| CGGATATA | 0.345 |
| TTATTCAA | 0.253 |
| AAATTCCG | 0.309 |
| AAGATATA | 0.323 |
| AAGATATC | 0.117 |

Can you look up the measured PBM E-score of AGTTGCTC for me?
-0.15

Same lookup for CTATTCCC , please.
-0.043

Moving on to CGGAACCA
0.141

Same again, this time with ATATGATA
0.347

Again, but for AAATTCCC
0.0364

For CTATTCAA then?
0.0501

Repeat for the following sequence: GATATATC
0.226
